tested on: Serratia marcescens IFO-3736; experiment: Antibacterial activity, minimum inhibition concentration (method of The Chemotherapy Association, Japan); assay type: cell-based; details: Serratia marcescens, IFO3736, strain F: Serratia marcescens IFO-3736; read-out: minimum inhibition concentration
Counter-ions that a name gives are not always drawn.
QUANTITY NAME: MIC

INSERT INTO assay_data (compound, result) VALUES
  ('CC(=O)OCC1=C(C(=O)O)N2C(=O)C(NC(=O)C(=C(Cl)Cl)c3cccn3C)[C@H]2SC1 (stereo partly drawn) [Compound 36]', '> 100 µg/mL'),
  ('CC1=C(C(=O)O)N2C(=O)C(NC(=O)C(=C(Cl)Cl)c3csc(N)n3)C2SC1 (stereo not drawn) [8-(3), sodium salt]', '> 100 µg/mL');

# input for lookup
QUERY: Request - read-out MIC | tested on Serratia marcescens IFO-3736 | compound CC1=C(C(=O)O)N2C(=O)C(NC(=O)C(=CCl)c3csc(N)n3)C2SC1 (single isomer, unassigned) [Compound 23, sodium salt]
RESULT: > 100 µg/mL

###

system: Staphylococcus aureus 6538-P; assay: Antibacterial activity, minimum inhibition concentration (method of The Chemotherapy Association, Japan); assay type: cell-based; details: strain A: Staphylococcus aureus 6538-P; read-out: minimum inhibition concentration
Structures can show the parent of a compound that is named as a salt.
QUANTITY NAME: log10 of MIC (log10 of the value in µg/mL)
For clarity, the numbers are log10 values of MIC expressed in µg/mL.

Worked cases, answers included:
INSERT INTO assay_data (molecule, quantitative_readout) VALUES
  ('CO/N=C(\C(=O)N[C@@H]1C(=O)N2C(C(=O)O)=C(COC(C)=O)CS[C@H]12)c1csc(N)n1 [Cefotaxime, reference compound]', -0.41),
  ('CSc1nnc(SCC2=C(C(=O)O)N3C(=O)C(NC(=O)C(=C(Cl)Cl)c4csc(N)n4)C3SC2)s1 (stereo not drawn) [9-(2), sodium salt]', -0.11),
  ('CC(=O)OCC1=C(C(=O)O)N2C(=O)C(NC(=O)C(=C(Cl)Cl)c3cccc(O)c3)[C@H]2SC1 (stereo partly drawn)', -0.41),
  ('Cn1nnnc1SCC1=C(C(=O)O)N2C(=O)C(NC(=O)C(=CCl)c3cccs3)C2SC1 (stereo not drawn)', 1.40),
  ('CC(=O)OCC1=C(C(=O)O)N2C(=O)C(NC(=O)C(=C(Cl)Cl)c3ccc(Cl)c(Cl)c3)[C@H]2SC1 (stereo partly drawn)', 2.00),
  ('CC(=O)OCC1=C(C(=O)O)N2C(=O)C(NC(=O)C(=C(Cl)Cl)c3ccc(NC(=O)OC(C)(C)C)cc3)C2SC1 (stereo not drawn)', -0.41),
  ('CC(=O)OCC1=C(C(=O)O)N2C(=O)C(NC(=O)C(=C(Cl)Cl)c3csc(NC(=O)OC(C)(C)C)n3)C2SC1 (stereo not drawn)', 0.19);

Proceeding to the next molecule to report its log10 of MIC.
QUERY: Recorded log10 of MIC for CC(=O)OCC1=C(C(=O)O)N2C(=O)C(NC(=O)C(=C(Cl)Cl)c3ccccc3)[C@H]2SC1 (stereo partly drawn) , please?
RESULT: 0.19
